Test system: RARg:RXRa (NR concentration 270 nM, RXRa partner concentration 90 nM)
Assay Info: PBM binding z-score (relative to random genomic background probes); higher = stronger binding; sequences stand for … in GC…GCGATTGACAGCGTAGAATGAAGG
Entries and their PBM binding z-score
Enter the number alone.

Below: 10 sequences and their reported PBM binding z-score.
| Query Sequence | Target Entity | PBM binding z-score |
| --- | --- | --- |
| GGAACGAGGGCAAGTTGATAGAAGAGTTTGATGG | RARg:RXRa (NR concentration 270 nM, RXRa partner concentration 90 nM) | 1.55 |
| TCTAGTTGGTCACGGAGGTCACACACGACGGGTA | RARg:RXRa (NR concentration 270 nM, RXRa partner concentration 90 nM) | 4.66 |
| CGAACTAGGACATTGACAGGACAGTGAATAGTAA | RARg:RXRa (NR concentration 270 nM, RXRa partner concentration 90 nM) | 0.496 |
| CCAGACGGGTGAGAAGGTAACTCAGCCTCGATTA | RARg:RXRa (NR concentration 270 nM, RXRa partner concentration 90 nM) | 0.0516 |
| AATGCAGGGTCACTAGGCCAGAGTAGGTACGAAT | RARg:RXRa (NR concentration 270 nM, RXRa partner concentration 90 nM) | 5.29 |
| AGAATGAGGTTATTAAGATCAGGGATTTGCGGTC | RARg:RXRa (NR concentration 270 nM, RXRa partner concentration 90 nM) | 1.19 |
| CCGACTGGAGCAGAAAGGTTACCATACCATCCGG | RARg:RXRa (NR concentration 270 nM, RXRa partner concentration 90 nM) | 1.32 |
| CCGACTGGGGCAGAAAGGTTTCCATACCATCCGG | RARg:RXRa (NR concentration 270 nM, RXRa partner concentration 90 nM) | -0.218 |
| GATACAAGGTCAAGGCCAGAGTACGCGTATTGAT | RARg:RXRa (NR concentration 270 nM, RXRa partner concentration 90 nM) | 5.82 |
| ACTCGGAAGACAAAGGTCAGAGCTACGCCAGTGA | RARg:RXRa (NR concentration 270 nM, RXRa partner concentration 90 nM) | 4.5 |

[in] Query: PBM binding z-score; subject: "GCTCGGATGACAAGGTCAGAGCTTTGTCCGTAGA"
[out] 2.42

[in] Query: PBM binding z-score; subject: "CAGACTAGGTCACAGAGGTCAAAGTCCGTGCGTA"
[out] 7.17

====

System: PPARg:RXRa 90nM:30nM, anti-RXR (NR concentration 90 nM, RXRa partner concentration 30 nM)
Assay Info: PBM binding z-score (relative to random genomic background probes); higher = stronger binding; sequences stand for … in GC…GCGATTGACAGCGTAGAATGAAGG
Entries and their PBM binding z-score
Enter the number alone.

| Query Sequence | Target Entity | PBM binding z-score |
| --- | --- | --- |
| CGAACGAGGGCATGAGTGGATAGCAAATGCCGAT | PPARg:RXRa 90nM:30nM, anti-RXR (NR concentration 90 nM, RXRa partner concentration 30 nM) | 0.449 |
| ATGTCTAGGTAAAGATAGTTCAGTGAATGCAAAT | PPARg:RXRa 90nM:30nM, anti-RXR (NR concentration 90 nM, RXRa partner concentration 30 nM) | 0.184 |
| CGTCCAAGGTCGTAGGAGGTCAGTGAAGACAGAT | PPARg:RXRa 90nM:30nM, anti-RXR (NR concentration 90 nM, RXRa partner concentration 30 nM) | 1.32 |

[in] Query: PBM binding z-score; subject: "CCGACTGGGGCAGGGTTACCATAACGCACAGCCA"
[out] 1.44

Source listed as the supplement of paper PMC6555819.
